- Experiment Notes: gradient 5% acetonitrile 3 min, to 50% in 2 min, to 85% in 15 min, held 3 min, 100 µL/min
- Test Context: column: Zorbax Extend-C18 2.1 x 50 mm; eluents: water / acetonitrile, 0.1% formic acid
Value Kind: RP-LC retention time (s)
Just the number please, in s, no unit attached.

Use the examples below as a reference point.
Molecule: COC(=O)c1sccc1NC(=O)Cn1cc(-c2nc(-c3ccc(Cl)cc3)no2)ccc1=O
RP-LC retention time (s): 1100
--
Molecule: CC(=O)N1N=C(c2ccccc2NS(C)(=O)=O)CC1c1ccc2ncccc2c1 (stereo not given)
RP-LC retention time (s): 599
--
Molecule: Cc1sc(NC(=O)c2ccc(Br)cc2)nc1-c1ccc2c(c1)NC(=O)C(C)O2 (stereo not given)
RP-LC retention time (s): 1040
--
Molecule: COc1ccc(CN2CC3(CCN(S(=O)(=O)c4cn(C)cn4)CC3)C2=O)cc1
RP-LC retention time (s): 688
--
Molecule: COCCN1C(=O)CCc2cc(NS(=O)(=O)c3ccc(OC)c(OC)c3)ccc21
RP-LC retention time (s): 569
--
Molecule: COc1cc2c(cc1CNC(=O)c1ccc3c(c1)CC(C)O3)OCCCO2 (stereo not given)
RP-LC retention time (s): 855

Challenge: Fill in reported RP-LC retention time for this entry: CCN(CCN(C)C)C(=O)c1cc2c(s1)N(CC)CCCC2
Response given: 599

Challenge: State its RP-LC retention time for this molecule: CCc1ccccc1NC(=O)C1(C)Oc2cccnc2N(C)C1=O (stereo not given)
Response given: 814

Challenge: Complete the entry with RP-LC retention time for Cn1c(N2CCCC(C(=O)NCCCc3ccccc3)C2)cc(=O)n(C)c1=O (stereo not given)
Response given: 736

Challenge: Let me know recorded RP-LC retention time for Cc1ccc(CCNC(=O)c2cc3n(n2)CC(C)(C(=O)NC2CCCC2)N(C)C3=O)cc1 (stereo not given) , thanks.
Response given: 809

Challenge: Give reported RP-LC retention time value for CCOc1cc(=O)n2c(c1C(=O)Nc1cc(OC)c(OC)c(OC)c1)CCCC2
Response given: 967

Challenge: Tell me RP-LC retention time reported for CC1CCN(S(=O)(=O)c2ccc3nn(CC(=O)OC(C)C)c(=O)n3c2)CC1
Response given: 929

Challenge: For the molecule CC(C)[C@@H](C(=O)NCCc1c[nH]c2ccc(F)cc12)n1nnc2ccccc2c1=O , report RP-LC retention time.
Response given: 874

Challenge: Provide measured RP-LC retention time value, entry: CC1=C(c2ccc(F)cc2)S(=O)(=O)N=C1N1CCCN(C(=O)c2ccc(F)cc2)CC1
Response given: 835

Challenge: State its RP-LC retention time: O=C1CC[C@]2(C(=O)N3CCCCC3)CCCC[C@H]2N1CCc1ccccc1
Response given: 878

Challenge: Quote RP-LC retention time reported for CC(=O)Nc1ccc(-n2cnc(C(=O)NCc3ccc(F)cc3)c2)nc1 please.
Response given: 681

Challenge: Give the reported value of RP-LC retention time for this record: CCOC(=O)Cc1ccc(NC(=O)N2CCN(c3nc4ccccc4n3C)CC2)cc1
Response given: 656

Challenge: Give RP-LC retention time for the following molecule: COc1ccc(NS(=O)(=O)c2cn(C(C)C)c3ncccc23)cc1
Response given: 840

Challenge: Please look at this molecule and report its RP-LC retention time: COc1ccc(C2(C(=O)N3CCC4(CC3)c3nccn3-c3ccccc3CN4C)CC2)cc1
Response given: 630

Challenge: Given O=C(Nc1ccccc1)C1CCCN(c2cnc3nccnc3c2)C1 (stereo not given) , respond with its RP-LC retention time.
Response given: 703

Challenge: Quote RP-LC retention time reported for Cc1cccc(N2CCN(C(=O)c3cn4ccc(C)cc4n3)CC2)c1 please.
Response given: 668

Challenge: Determine its reported RP-LC retention time: COc1ccccc1CCN1CC(=O)N(c2ccc(C)c(C)c2)[C@@H]2CS(=O)(=O)C[C@@H]21
Response given: 897

Challenge: Answer with the recorded RP-LC retention time of CCC1CN(C(=O)Nc2cccc(OC)c2)c2ccccc2O1 (stereo not given) only.
Response given: 945

Challenge: Provide only the value of recorded RP-LC retention time for CC(=O)Nc1ccc(OC[C@](C)(O)C(=O)Nc2ccc([N+](=O)[O-])c(C(F)(F)F)c2)cc1
Response given: 858

Challenge: Name the recorded RP-LC retention time of the molecule listed here: Cc1cccc(OCc2nc(-c3ccc4ncn(C(C)C)c4c3)no2)c1
Response given: 839
